- Tested on: MDA-MB-435 melanoma
- protocol.details: NCI-60 one-dose screen, 48 h (100 = growth as untreated, 0 = no growth, -100 = all killed)
- condition.context: 10 µM
About 83,000 compounds went through this panel and 20% of them were active in at least one assay; those are over-represented in the sample as a whole.
Listing of recorded growth by entry.
Give the value in % but do not write % after it.

Past entries and their recorded results:
compound	quantity.measured	result.units	observed
Cc1[nH]nc2c(=S)[nH]c(=O)[nH]c12	growth	%	102
CCC1(C)OC(=O)NC1=O (stereo unspecified)	growth	%	112
S=c1c2ncccc2c(-c2ccccn2)nn1Cc1ccccn1	growth	%	100
C[N+]1=C(/C=C/c2ccc(I)cc2)C(C)(C)c2ccccc21	growth	%	75.7
Cc1ccc2c3c(cccc13)-c1ccccc1C2=O	growth	%	98.9
COc1ccc(-c2nsc3c2NC(=O)CC3c2ccc(Cl)cc2)cc1 (stereo unspecified)	growth	%	81
CNCCCNCCCN1C(=O)c2ccc3c4c(ccc(c24)C1=O)C(=O)N(CCCNCc1ccccc1OC)C3=O	growth	%	-58.6
Cc1nc(Nc2nc3ccccc3o2)nc(-c2cccc([N+](=O)[O-])c2)c1C(=O)Nc1ccc(F)c(Cl)c1	growth	%	8.91
CC(=O)/C(=C\c1ccc(Cl)cc1)c1ccccc1	growth	%	-35.2
COc1ccccc1NC1=C(N2CCCCC2)C(=O)c2ccccc2C1=O	growth	%	93.2

Now turn to the next compound.
INPUT: Name the reported growth value associated with the compound CCc1cc2n(n1)-c1ncc(C(=O)OC)cc1Oc1ccccc1-2
OUTPUT: 103

----------
- Test system: MALME-3M melanoma
- protocol.details: NCI-60 one-dose screen, 48 h (100 = growth as untreated, 0 = no growth, -100 = all killed)
- condition.context: 10 µM
This is part of a sample that, as a whole, favours compounds with a hit. Of some 83,000 tested, about 20% had one in any assay.
I would appreciate it if you labelled entries satisfied when growth is 10% or higher, otherwise not satisfied.

compound	assigned.label
COc1cc(C(=O)n2nc(N)c3c(C)cc(C)nc32)cc(OC)c1OC	satisfied
CCc1ccc(-c2nnc(COc3ccc(-c4nc5ccccc5[nH]4)cc3OC)o2)cc1	satisfied
NC(=O)c1ccc(Br)o1	satisfied
Cc1ccc([P+](Cc2ccccc2)(c2ccccc2)c2ccccc2)cc1	not satisfied
COc1cc(C2=Nc3c/c(=C\c4c(O)[nH]c5ccc(Cl)cc45)ccc3=N2)cc(OC)c1OC	not satisfied
CCOC(=O)CNC(=O)Nc1ccc(Oc2ccc(NC(=O)NCC(=O)OCC)cc2)cc1	satisfied
CC(CNC(Cc1ccccc1)c1ccccc1)NC(Cc1ccccc1)c1ccccc1 (stereo not given)	satisfied
COCCOC(=O)NC(=O)Nc1ccc(/C(=N/O)c2ccc(Cl)cc2)cc1	satisfied

INPUT: Confirm if growth reported for the compound COCc1cc2c(cc1Br)OCO2 is 10% or above.
OUTPUT: satisfied

INPUT: Confirm if growth reported for the compound COc1cc(CSc2nc3ccc(Cl)cc3c(=O)n2Cc2ccccc2)cc(OC)c1OC is 10% or above.
OUTPUT: satisfied

INPUT: Confirm if growth reported for the compound Cc1ccc2c(c1)-c1cc(C)nn1-c1ccc(C#N)cc1O2 is 10% or above.
OUTPUT: satisfied

INPUT: Confirm if growth reported for the compound COC(=O)[C@]12CC[C@@H](C)[C@H](C)[C@@H]1C1=CC[C@@H]3[C@@]4(C)CC(=O)[C@H](O)[C@@](C)(CO)[C@@H]4C(=O)C[C@@]3(C)[C@]1(C)CC2 is 10% or above.
OUTPUT: not satisfied

INPUT: Confirm if growth reported for the compound O=C(Nc1cccc(Cl)c1)Nc1cc2ncncc2cc1OCc1cccc(F)c1 is 10% or above.
OUTPUT: satisfied

INPUT: Confirm if growth reported for the compound COc1ccc(-c2nc(-c3ccccc3)c(-c3ccccc3)[nH]2)cc1OC1CCCC1 is 10% or above.
OUTPUT: satisfied

INPUT: Confirm if growth reported for the compound COc1ccc(-c2ccc(-c3ccc(C(=N)N)c(F)c3)s2)cc1 is 10% or above.
OUTPUT: not satisfied

----------
- System: A498 renal
- protocol.details: NCI-60 one-dose screen, 48 h (100 = growth as untreated, 0 = no growth, -100 = all killed)
- condition.context: 10 µM
The panel holds about 83,000 compounds, 20% with a hit somewhere; the sample as a whole holds those more often.
Doc: threshold 80% (exclusive). Items with growth beneath it return t; others return f.

Example entries begin here.
molecule	assigned.label
O=S(=O)(NCl)c1ccccc1	f
O=NN(CCCl)C(=O)NCc1ccc(-c2ccc(CNC(=O)N(CCCl)N=O)cc2)cc1	f
CCOC(=O)Cn1nnc(-c2ccc(OCc3ccccc3F)cc2)n1	t

INPUT: Is growth strictly under 80% for the entry Cc1cccc2c1O/C(=C\c1ncc([N+](=O)[O-])n1C)C2=O ?
OUTPUT: t

INPUT: Is growth strictly under 80% for the entry Cc1ccc(-c2cc(-c3cccc(Nc4ccnc5cc(Cl)ccc45)c3)nc3nc(N)[nH]c(=O)c23)cc1 ?
OUTPUT: f

INPUT: Is growth strictly under 80% for the entry O=C(CCc1ccccc1)N1CCN(C(=O)CCc2ccccc2)CC1 ?
OUTPUT: f

INPUT: Is growth strictly under 80% for the entry C[N+]1=C(/C=C/c2ccc(I)cc2)C(C)(C)c2ccccc21 ?
OUTPUT: f

INPUT: Is growth strictly under 80% for the entry COc1ccc(C2C=C(c3ccc(Cl)c(Cl)c3)N=C3SC(C)=CN32)cc1OC (stereo not drawn) ?
OUTPUT: f

INPUT: Is growth strictly under 80% for the entry Brc1ccc(-c2cn3ccnc3c(-c3ccc(Br)cc3)n2)cc1 ?
OUTPUT: t

INPUT: Is growth strictly under 80% for the entry O=C(Nc1ccc(CN2CCOCC2)cc1)c1ccc(-c2cc(Cl)ccc2Cl)o1 ?
OUTPUT: f

INPUT: Is growth strictly under 80% for the entry O=C(Nc1ccc(Oc2ccc(Nc3nc4ccccc4s3)cc2)cc1)Nc1ccc(Cl)c(Cl)c1 ?
OUTPUT: t

----------
- Tested on: HCT-15 colon
- protocol.details: NCI-60 one-dose screen, 48 h
- condition.context: 10 µM
- Experimental: Growth inhibition of the HCT-15 human tumor cell line is measured as a screen for anti-cancer activity. Cells are grown in 96 well plates and exposed to the test compound for 48 hours. Compounds are tested at a single concentration, which is 10^-5 M for most compounds. The reported endpoint is percent growth (GI% or GIPRCNT), where numbers from 0 - 100% represent growth inhibition, and numbers from -100% - 0 represent cell death. For example, a value of 40 represents 60% growth inhibition. […]
This is part of a sample that, as a whole, favours compounds with a hit. Of some 83,000 tested, about 20% had one in any assay. Active and inactive are the calls of the source. The calls were made as follows: active = growth percent below 10; inactive = the rest.
Bench note: report the call from active, inactive

Example entries begin here.
CCOC(=O)c1ccc(NC(=O)Nc2nncs2)cc1 inactive
COC(=O)c1cnc2c(c1)Oc1ccccc1-c1ccnn1-2 inactive
Clc1cc(Cl)c(OCCCCCCN2CCNCC2)c(Cl)c1 active
O=C(CCl)N1c2ccccc2Sc2ccc3ccccc3c21 active

INPUT: Could you kindly confirm the outcome this assay logged for Cc1cc(C)c2c(Nc3ncnc4c3sc3nc(C)cc(C)c34)n[nH]c2n1 ?
OUTPUT: inactive

----------
- System: IGROV1 ovarian
- protocol.details: NCI-60 one-dose screen, 48 h
- condition.context: 10 µM
This is part of a sample that, as a whole, favours compounds with a hit. Of some 83,000 tested, about 20% had one in any assay. Activity calls are given as the source filed them. How the source made its calls: active means growth percent below 10; inactive means the rest.
Bench note: report the call from class 1 = active, class 0 = inactive

Example entries begin here.
Cc1cc(C(C)(C)CC(C)(C)C)ccc1OCCOCC[N+](C)(C)Cc1ccccc1 class 1
COc1cccc2c1O/C(=C\c1ncc([N+](=O)[O-])n1C)C2=O class 1
CCCc1c(CC)c(=N)c2ccccc2n1C class 0
COc1ccc(S(=O)(=O)Nc2cc(/C=C\c3cc(OC)c(OC)c(OC)c3)ccc2OC)cc1 class 0
COc1cccc2c1O/C(=C\c1ccc([N+](=O)[O-])s1)C2=O class 0

INPUT: Could you kindly confirm the outcome this assay logged for CC(=O)O[C@H]1CC[C@@]2(C)[C@@H](CC[C@@H]3[C@@H]2CC[C@]2(C)C=C(C=O)C[C@@H]32)C1 ?
OUTPUT: class 0

INPUT: Could you kindly confirm the outcome this assay logged for CCOC(=O)c1cc2c(n1Cc1cccc(OC)c1)-c1oncc1CC2 ?
OUTPUT: class 0

----------
- System: HS 578T breast
- protocol.details: NCI-60 one-dose screen, 48 h (100 = growth as untreated, 0 = no growth, -100 = all killed)
- condition.context: 10 µM
This is part of a sample that, as a whole, favours compounds with a hit. Of some 83,000 tested, about 20% had one in any assay. The source made the active and inactive calls. The calls were made as follows: active = growth percent below 10; inactive = the rest.
quantity.measured: growth

Past entries and their recorded results:
COc1ccc(CCc2nc3cc(-c4c(C)noc4C)ccc3n2CCN2CCOCC2)cc1 50.2% (inactive)
COc1ccc(-c2nc(-c3nc4ccc(OC)cc4[nH]3)c3ccccn23)cc1 80% (inactive)

Now turn to the next compound.
INPUT: Name the reported growth value associated with the compound C[C@@H]1C(=O)N(C[C@H](Cc2ccccc2)NC(=O)OCc2ccccc2)[C@]1(Cc1ccccc1)C(=O)OCc1ccccc1
OUTPUT: 78.8% (inactive)

The values you see were collected from PubChem BioAssay (NCI).
